Reference for the values: ChEMBL document CHEMBL1158832

Target: P-glycoprotein (ABCB1) (Homo sapiens)
Sequence (P08183 whole entry): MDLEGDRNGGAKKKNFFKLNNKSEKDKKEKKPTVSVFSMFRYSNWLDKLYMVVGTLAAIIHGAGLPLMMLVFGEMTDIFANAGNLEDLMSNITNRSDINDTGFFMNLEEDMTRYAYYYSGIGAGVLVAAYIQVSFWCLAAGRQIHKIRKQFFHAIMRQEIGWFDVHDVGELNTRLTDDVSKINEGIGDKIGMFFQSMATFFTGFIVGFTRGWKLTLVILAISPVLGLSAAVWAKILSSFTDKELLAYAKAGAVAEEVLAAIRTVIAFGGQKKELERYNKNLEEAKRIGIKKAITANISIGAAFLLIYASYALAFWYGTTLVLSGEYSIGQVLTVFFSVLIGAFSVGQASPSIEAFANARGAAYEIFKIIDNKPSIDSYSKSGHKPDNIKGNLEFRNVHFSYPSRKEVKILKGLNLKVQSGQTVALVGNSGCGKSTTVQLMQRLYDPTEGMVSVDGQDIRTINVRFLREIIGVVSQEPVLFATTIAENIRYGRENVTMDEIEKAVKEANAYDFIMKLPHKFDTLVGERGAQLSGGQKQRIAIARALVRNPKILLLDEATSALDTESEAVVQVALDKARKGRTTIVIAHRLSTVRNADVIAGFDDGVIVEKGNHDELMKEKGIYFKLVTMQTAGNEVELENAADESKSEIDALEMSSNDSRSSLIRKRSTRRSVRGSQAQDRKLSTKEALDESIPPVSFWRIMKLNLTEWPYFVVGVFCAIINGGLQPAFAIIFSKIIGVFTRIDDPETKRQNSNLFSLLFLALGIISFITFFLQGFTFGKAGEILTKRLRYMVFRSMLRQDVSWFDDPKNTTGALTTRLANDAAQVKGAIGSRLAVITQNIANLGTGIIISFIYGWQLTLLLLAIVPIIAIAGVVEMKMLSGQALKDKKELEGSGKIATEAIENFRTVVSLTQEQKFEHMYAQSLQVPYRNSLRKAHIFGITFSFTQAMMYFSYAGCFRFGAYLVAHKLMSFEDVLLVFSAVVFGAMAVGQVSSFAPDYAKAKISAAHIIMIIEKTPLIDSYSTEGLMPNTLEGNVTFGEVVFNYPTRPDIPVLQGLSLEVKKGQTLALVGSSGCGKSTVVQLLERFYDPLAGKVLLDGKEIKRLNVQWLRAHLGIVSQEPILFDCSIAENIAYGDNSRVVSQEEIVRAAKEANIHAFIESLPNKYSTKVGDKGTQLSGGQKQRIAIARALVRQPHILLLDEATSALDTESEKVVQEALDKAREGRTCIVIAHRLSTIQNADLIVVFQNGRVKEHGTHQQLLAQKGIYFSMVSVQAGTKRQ
Assay: Inhibition of P-glycoprotein-mediated multidrug resistance in adriamycin-resistant human A2780 cells assessed as calcein accumulation at 0.25 ug/ml after 15 mins relative to control
Format: cell-based
Conditions: probe calcein, values are per cent of control
MEASURED METRIC: response, % of control at 0.25 h, 0.25 ug/ml (%)

> print(dat)
                      smiles.representation  reported.value
1  COc1cc([C@@H]2O[C@H](c3cc(OC)c4c(c3)OCO4)[C@@H](COC(C)=O)[C@@H]2COC(C)=O)cc(OC)c1O              88
2  COc1cc([C@@H]2O[C@H](c3cc(OC)c4c(c3)OCO4)[C@@H](COC(C)=O)[C@@H]2CO)cc(OC)c1OC              97
3  COc1cc([C@H]2O[C@@H](c3cc(OC)c4c(c3)OCO4)[C@@H](COC(C)=O)[C@@H]2CO)cc2c1OCO2              76
4  CC(C)[C@@H](C)/C=C/[C@@H](C)[C@H]1CC[C@H]2[C@@]3(O)C=C[C@@]4(O)C[C@@H](O)CC[C@]4(C)[C@H]3CC[C@]12C              97
